biological target: RSV F protein of recombinant mKate-RSV, subtype A (strain A2) (Respiratory syncytial virus subtype A …, UniProt P03420 26-574); assay: cell-based or functional assay
Measured Neut IC50 subtype A values are reported for all entries that follow.
measurement-label: Neut IC50 subtype A (µg/mL)

[[record]]
binder = "ADI-14485 (antibody, V domains shown, full-length IgG (yeast-expressed); also called Antibody Number 46; Ab# 46) VH: EVQLVESGAEVKRPGSSVKVSCKVVGGSFSNYAISWVRQAPGQGPEYLGGIIPAFRTAKYAKKFQDRLTITADESTSTAYMEMRGLTSDDTGLYYCARPEGDFGDLKWLRSPFDYWGQGTLVTVSS VL: EIVLTQSPATLSVSPGQRVTLSCRASQGVSINLAWYQQKPGQPPRLLIYGASTRATDIPARFSGSGSGTDFTLTISSLQSEDFAVYYCQQYDDWPPQLTFGPGTKLEIK"
bound_type = ">"
measurement = 10

[[record]]
binder = "ADI-14523 (antibody, V domains shown, full-length IgG (yeast-expressed); also called Antibody Number 83; Ab# 83) VH: EVQLVESGGGLVKPGGSLRLSCAASGFIFRNAWMSWVRQAPGKGLEWVGRIKRTSEGGSVDYATPVQGRFSISRDDSRNTLYLQMNSLETDDTAVYYCSTGPPYSYFDSSGYSVVDYWGQGTLVTVSS VL: QSVLTQPPSASGTPGQRVTISCSASSSNIGDNYFYWYQQLPGKAPTLLMYGSDQRSSGVPDRFSGSQSGTSASLAISGLRSEDEADYYCAAWDDSLSGPVFGGGTKLTVL"
bound_type = "="
measurement = 0.239

[[record]]
binder = "ADI-14476 (antibody, V domains shown, full-length IgG (yeast-expressed); also called Antibody Number 38; Ab# 38) VH: QVQLVESGPTLVKPTQTLSLTCTFSGFSLTTRGVGVGWIRQPPGKALEWLGFTYWDGDDRYSPSLRNRVSIAKDTSKNQVVLTLTNMDPVDTATYFCVHSDRYDRGGYYLYFFDYWGPGTLVTVSS VL: DIRVTQSPSSLSASVGDRVSISCRASQTIASYVNWYQQRPGKAPQLLIFAASHLQTGVPSRFSGRGSGTDFTLTITSLQPEDFATYYCQQSYTSPYTFGQGTKVEIK"
bound_type = "="
measurement = 0.929

